target: VPAC1 receptor (CHO-K1/VPAC1 cells) (Homo sapiens); construct: expressed in transfected cells; assay: in vitro subtractive panning of 12-mer phage display peptide library on CHO-K1/VPAC1 cells, DNA sequencing of clones; assay type: binding; details: 60 phage clones randomly selected after fourth round of panning; three lacked exogenous sequence
Sequence (P32241 31-457): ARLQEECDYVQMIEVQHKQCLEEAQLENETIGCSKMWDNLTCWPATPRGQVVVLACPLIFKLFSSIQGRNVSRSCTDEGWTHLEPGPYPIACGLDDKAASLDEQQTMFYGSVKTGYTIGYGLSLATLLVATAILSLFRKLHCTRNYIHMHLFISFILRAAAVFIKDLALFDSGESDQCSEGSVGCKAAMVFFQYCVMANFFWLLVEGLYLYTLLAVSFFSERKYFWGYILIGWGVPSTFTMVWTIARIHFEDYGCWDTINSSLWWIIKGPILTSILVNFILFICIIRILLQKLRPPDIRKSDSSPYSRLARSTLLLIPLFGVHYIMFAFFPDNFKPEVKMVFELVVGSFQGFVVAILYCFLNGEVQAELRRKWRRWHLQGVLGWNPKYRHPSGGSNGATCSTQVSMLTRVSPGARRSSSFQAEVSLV
Friendly reminder: Frequency (number of the peptide sequence appeared in the whole selected phage clones) below 2 is satisfied, at or above is not satisfied.

As a guide, the following entries are already answered.
[[record]]
sequence_input = "DTGHSPEPGKVP [VP13]"
group = "satisfied"

[[record]]
sequence_input = "GSFHSPLLAYVS [VP12]"
group = "satisfied"

[[record]]
sequence_input = "TVKYSTLVEWPY [VP1]"
group = "not satisfied"


In plain terms, does AYTTVPYMATLP [VP9] come in under 2 for Frequency (number of the peptide sequence appeared in the whole selected phage clones)?
satisfied

In plain terms, does GTFHSPLLDHKS [VP14] come in under 2 for Frequency (number of the peptide sequence appeared in the whole selected phage clones)?
satisfied

In plain terms, does TVTFAPLRMWHP [VP15] come in under 2 for Frequency (number of the peptide sequence appeared in the whole selected phage clones)?
satisfied

In plain terms, does ETVRQAEELFYV [VP7] come in under 2 for Frequency (number of the peptide sequence appeared in the whole selected phage clones)?
satisfied

In plain terms, does TWKFEPLGTFID [VP4] come in under 2 for Frequency (number of the peptide sequence appeared in the whole selected phage clones)?
not satisfied

In plain terms, does HSTLKLGALTNY [VP11] come in under 2 for Frequency (number of the peptide sequence appeared in the whole selected phage clones)?
satisfied

In plain terms, does GYTFQPLNEWAI [VP18] come in under 2 for Frequency (number of the peptide sequence appeared in the whole selected phage clones)?
satisfied

In plain terms, does SFRFFPLDMWPH [VP8] come in under 2 for Frequency (number of the peptide sequence appeared in the whole selected phage clones)?
not satisfied

In plain terms, does YTSHFPLETWPQ [VP6] come in under 2 for Frequency (number of the peptide sequence appeared in the whole selected phage clones)?
not satisfied

In plain terms, does DTFHSPLVALVS [VP5] come in under 2 for Frequency (number of the peptide sequence appeared in the whole selected phage clones)?
not satisfied

In plain terms, does TYTFRPLYEPPL [VP17] come in under 2 for Frequency (number of the peptide sequence appeared in the whole selected phage clones)?
satisfied

* * *

biological target: VPAC1 receptor (CHO-K1/VPAC1 cells) (Homo sapiens); construct: expressed in transfected cells; assay: in vitro subtractive panning of 12-mer phage display peptide library on CHO-K1/VPAC1 cells, DNA sequencing of clones; assay type: binding; settings: 60 phage clones randomly selected after fourth round of panning; three lacked exogenous sequence
Endpoint name: Frequency (number of the peptide sequence appeared in the whole selected phage clones)
Give the figure only, with no unit attached.

[[record]]
sequence_input = "GWLRSPSLLFSN [VP16]"
endpoint_value = 2

[[record]]
sequence_input = "NSIALINDTHKR [VP3]"
endpoint_value = 2


Entry GGSIAASELEYY [VP10] , system VPAC1 receptor (CHO-K1/VPAC1 cells) (Homo sapiens): what Frequency (number of the peptide sequence appeared in the whole selected phage clones) was measured?
2
